Ref: the supplement of paper PMC7877785

# test-name: self-splicing fitness, log relative to wild type (ln ratio); higher = more splicing; Tetrahymena group I intron in knt gene, E. coli kanamycin selection, DiMSum; sequences stand for … in CUCUCU…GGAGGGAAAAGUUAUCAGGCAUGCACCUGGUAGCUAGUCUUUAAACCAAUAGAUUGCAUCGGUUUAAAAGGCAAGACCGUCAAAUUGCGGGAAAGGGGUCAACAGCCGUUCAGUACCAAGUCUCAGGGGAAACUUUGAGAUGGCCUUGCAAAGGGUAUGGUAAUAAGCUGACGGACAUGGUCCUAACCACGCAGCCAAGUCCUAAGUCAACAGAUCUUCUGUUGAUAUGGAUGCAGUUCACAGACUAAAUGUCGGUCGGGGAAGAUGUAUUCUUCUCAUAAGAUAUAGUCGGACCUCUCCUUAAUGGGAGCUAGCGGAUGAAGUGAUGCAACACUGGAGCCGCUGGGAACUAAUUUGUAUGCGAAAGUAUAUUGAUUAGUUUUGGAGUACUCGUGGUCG;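 note: selection with 25 µg/mL kanamycin versus none on LB agar overnight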
# applied-conditions: 37 °C
reported-metric: self-splicing fitness (ln)
Would you mind answering with just the numeric figure?

{"record-sequence": "UAGGAGCAAUAUUACGAGUA", "assay-value": -1.93}
{"record-sequence": "CGCCAGCAAUAUUACGGGAA", "assay-value": -1.64}
{"record-sequence": "UGCCAGCAAUAUUACGUACG", "assay-value": 0.435}
{"record-sequence": "AUCAAGCAAUAUUACGAACG", "assay-value": -0.462}
{"record-sequence": "CGUCAGCAAUAUUACGUCUU", "assay-value": -0.743}
{"record-sequence": "CGGUAGCAAUAUUACGCCUA", "assay-value": -0.215}

INPUT: Consider the sequence shown here: `AACAAGCAAUAUUACGCUAC` What is its recorded self-splicing fitness (ln)?
OUTPUT: -3.21

INPUT: Also need `CGAUAGCAAUAUUACGUAAG` , thanks.
OUTPUT: 0.259

====

# test-name: self-splicing fitness, log relative to wild type (ln ratio); higher = more splicing; Tetrahymena group I intron in knt gene, E. coli kanamycin selection, DiMSum; sequences stand for … in CUCUCU…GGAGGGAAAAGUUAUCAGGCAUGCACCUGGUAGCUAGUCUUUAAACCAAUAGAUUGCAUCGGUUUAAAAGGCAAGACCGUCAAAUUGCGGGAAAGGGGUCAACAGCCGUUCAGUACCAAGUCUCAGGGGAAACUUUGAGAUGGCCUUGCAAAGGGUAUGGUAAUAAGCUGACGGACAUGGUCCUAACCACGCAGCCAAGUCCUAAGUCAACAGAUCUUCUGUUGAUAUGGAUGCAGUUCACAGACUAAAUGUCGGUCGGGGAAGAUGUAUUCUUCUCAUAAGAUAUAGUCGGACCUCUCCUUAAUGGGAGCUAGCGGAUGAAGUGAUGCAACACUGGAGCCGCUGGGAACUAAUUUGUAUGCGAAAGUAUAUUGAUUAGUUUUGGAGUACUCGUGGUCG
# applied-conditions: 30 °C
Measured self-splicing fitness (ln) of individual entries
Would you mind answering with just the numeric figure?

Consider the worked cases shown below.
{"record-sequence": "GAGCAGCAAUAUUACGUGAA", "self-splicing fitness (ln)": -0.549}
{"record-sequence": "UAUCAGCAAUAUUACGACCC", "self-splicing fitness (ln)": -1.87}
{"record-sequence": "UAGAAGCAAUAUUACGGCAU", "self-splicing fitness (ln)": -1.96}

INPUT: Consider the sequence shown here: `AAUGAGCAAUAUUACGGGGU` What is its recorded self-splicing fitness (ln)?
OUTPUT: -2.97

INPUT: Also need `UUGGAGCAAUAUUACGGUGU` , thanks.
OUTPUT: -3.09
